Hey, just so you know, these numbers are from PubChem BioAssay (NCI).

Test system: EKVX NSCLC
assay name: NCI tumour cell line growth inhibition, 48 h

{"smiles repr": "CC(=O)OC(C)(C)/C=C/C(=O)[C@](C)(O)[C@H]1[C@H](O)C[C@@]2(C)[C@@H]3CC=C4[C@@H](C[C@H](O)C(=O)C4(C)C)[C@]3(CO)C(=O)C[C@]12C", "experimental system": "EKVX NSCLC", "GI50": "0.432 µM"}
{"smiles repr": "O=C1C(Cl)=C(Nc2cccc(O)c2)C(=O)N1Cc1ccc(Cl)cc1", "experimental system": "EKVX NSCLC", "GI50": "13.6 µM"}
{"smiles repr": "CC1(C)CCC[C@]2(C)c3cc(O)ccc3CC[C@@H]12", "experimental system": "EKVX NSCLC", "GI50": "21.5 µM"}
{"smiles repr": "COc1cc2c(cc1OC)-c1ccc3cc4c(cc3c1N(CCN(C)C)C2)OCO4", "experimental system": "EKVX NSCLC", "GI50": "1.33 µM"}
